# Tested on: Rattus norvegicus
# protocol: Effect on nociception of the contralateral paw in rat model of sodium iodoacetate-induced osteoarthritis paw withdrawal threshold in early phase at 20 ug administered as intrathecal injection measured up to 45 mins by Von Frey test (reference value: 44 +/- 2.4 g)
# Type: organism-based
# condition-description: in vivo, icv_or_intrathecal, 0.75 h
In this section, each of the molecules is paired with its reported Activity.
assay-metric: Activity (g)

In [3]: df
Out[3]:
                      smiles_representation  assay_metric  unit_symbol  number
0  C[C@@H](NC(=O)[C@@H](N)Cc1ccc(O)cc1)C(=O)NCC(=O)N[C@@H](Cc1ccccc1)C(=O)NCC(=O)NCCCCCn1cc(C(=O)c2cccc3ccccc23)c2ccccc21      Activity            g      39
1   CCCCCn1cc(C(=O)c2cccc3ccccc23)c2ccccc21      Activity            g      41
2  COc1ccc2c3c1O[C@H]1C(=O)CC[C@@]4(O)[C@@H](C2)N(C)CC[C@]314      Activity            g      43
3  COc1ccc2c3c1O[C@H]1/C(=N\OCC(=O)NCCCCCCNC(=O)CCCCCn4cc(C(=O)c5cccc6ccccc56)c5ccccc54)CC[C@@]4(O)[C@@H](C2)N(C)CC[C@]314      Activity            g      42

###

Parameter Emax: see the listing below.
# Species on record: Rattus norvegicus
# condition-description: Wistar, Brain, Membranes, at 10 µM
# Description: Agonist activity at MOR/CB1R/CB2R receptor in Wistar rat brain membranes at 10 uM after 60 mins by [35S]-GTPgammaS binding assay relative to control

smiles-representation	Emax
COc1ccc2c3c1O[C@H]1/C(=N\OCC(=O)NCCCOCCOCCOCCCN)CC[C@@]4(O)[C@@H](C2)N(C)CC[C@]314	112%
CCCCCn1cc(C(=O)c2cccc3ccccc23)c2ccccc21	163%
C[C@@H](NC(=O)[C@@H](N)Cc1ccc(O)cc1)C(=O)NCC(=O)N[C@@H](Cc1ccccc1)C(=O)NCCCC(=O)NCCCCCn1cc(C(=O)c2cccc3ccccc23)c2ccccc21	125%
O=C(O)CCCCCn1cc(C(=O)c2cccc3ccccc23)c2ccccc21	81%
CC(=O)NCCCCCn1cc(C(=O)c2cccc3ccccc23)c2ccccc21	83%
COc1ccc2c3c1O[C@H]1/C(=N\OCC(=O)NCCN)CC[C@@]4(O)[C@@H](C2)N(C)CC[C@]314	113%
NCCCCCn1cc(C(=O)c2cccc3ccccc23)c2ccccc21	102%
C[C@@H](NC(=O)[C@@H](N)Cc1ccc(O)cc1)C(=O)NCC(=O)N[C@@H](Cc1ccccc1)C(=O)NCCC(=O)NCCCCCn1cc(C(=O)c2cccc3ccccc23)c2ccccc21	114%
COc1ccc2c3c1O[C@H]1/C(=N\OCC(=O)O)CC[C@@]4(O)[C@@H](C2)N(C)CC[C@]314	109%
COc1ccc2c3c1O[C@H]1/C(=N\OCC(=O)NCCCCCCN)CC[C@@]4(O)[C@@H](C2)N(C)CC[C@]314	111%
C[C@@H](NC(=O)[C@@H](N)Cc1ccc(O)cc1)C(=O)NCC(=O)N[C@@H](Cc1ccccc1)C(=O)NCCCCCn1cc(C(=O)c2cccc3ccccc23)c2ccccc21	110%
C[C@@H](NC(=O)[C@@H](N)Cc1ccc(O)cc1)C(=O)NCC(=O)N[C@@H](Cc1ccccc1)C(=O)NCC(=O)NCCCCCn1cc(C(=O)c2cccc3ccccc23)c2ccccc21	160%
COc1ccc2c3c1O[C@H]1/C(=N\OCC(=O)NCCCOCCOCCOCCCNC(=O)CCCCCn4cc(C(=O)c5cccc6ccccc56)c5ccccc54)CC[C@@]4(O)[C@@H](C2)N(C)CC[C@]314	99%
C[C@@H](NC(=O)[C@@H](N)Cc1ccc(O)cc1)C(=O)NCC(=O)N[C@@H](Cc1ccccc1)C(N)=O	157%
COc1ccc2c3c1O[C@H]1/C(=N\OCC(=O)NCCNC(=O)CCCCCn4cc(C(=O)c5cccc6ccccc56)c5ccccc54)CC[C@@]4(O)[C@@H](C2)N(C)CC[C@]314	100%
COc1ccc2c3c1O[C@H]1/C(=N\OCC(=O)NCCCCCCNC(=O)CCCCCn4cc(C(=O)c5cccc6ccccc56)c5ccccc54)CC[C@@]4(O)[C@@H](C2)N(C)CC[C@]314	147%

###

# tested-system: UniProt:P33535
# Sequence (P33535 whole entry): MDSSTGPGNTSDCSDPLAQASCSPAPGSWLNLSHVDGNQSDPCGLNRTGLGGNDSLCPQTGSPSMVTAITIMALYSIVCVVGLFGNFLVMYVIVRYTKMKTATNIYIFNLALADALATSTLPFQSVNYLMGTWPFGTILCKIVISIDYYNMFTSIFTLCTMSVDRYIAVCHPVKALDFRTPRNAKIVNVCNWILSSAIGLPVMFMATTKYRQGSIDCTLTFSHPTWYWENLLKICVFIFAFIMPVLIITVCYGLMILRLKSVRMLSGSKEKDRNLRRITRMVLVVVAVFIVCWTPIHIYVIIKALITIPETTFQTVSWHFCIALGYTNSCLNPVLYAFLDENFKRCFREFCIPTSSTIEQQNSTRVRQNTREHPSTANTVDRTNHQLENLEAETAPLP
# protocol: Agonist activity at MOR in Wistar rat brain membranes after 60 mins by [35S]-GTPgammaS binding assay
# Assay type: functional, cell membranes
pEC50: −log10 of the molar value.
assay-metric: pEC50

>>> df
                      smiles_representation  assay_metric  number
0  C[C@@H](NC(=O)[C@@H](N)Cc1ccc(O)cc1)C(=O)NCC(=O)N[C@@H](Cc1ccccc1)C(N)=O         pEC50    6.81

###

# System: Rattus norvegicus
# protocol: Effect on nociception of the contralateral paw in rat model of sodium iodoacetate-induced osteoarthritis paw withdrawal threshold in late phase at 20 ug administered as intrathecal injection measured after 60 to 90 mins by Von Frey test (reference value: 43 +/- 3.4 g)
# Type: organism-based
# condition-description: in vivo, icv_or_intrathecal
Activity overview
assay-metric: Activity

                      smiles_representation      tested_system  result
0   CCCCCn1cc(C(=O)c2cccc3ccccc23)c2ccccc21  Rattus norvegicus    42 g
1  COc1ccc2c3c1O[C@H]1C(=O)CC[C@@]4(O)[C@@H](C2)N(C)CC[C@]314  Rattus norvegicus    40 g
2  C[C@@H](NC(=O)[C@@H](N)Cc1ccc(O)cc1)C(=O)NCC(=O)N[C@@H](Cc1ccccc1)C(=O)NCC(=O)NCCCCCn1cc(C(=O)c2cccc3ccccc23)c2ccccc21  Rattus norvegicus    35 g
3  COc1ccc2c3c1O[C@H]1/C(=N\OCC(=O)NCCCCCCNC(=O)CCCCCn4cc(C(=O)c5cccc6ccccc56)c5ccccc54)CC[C@@]4(O)[C@@H](C2)N(C)CC[C@]314  Rattus norvegicus    47 g

###

Data export: Ki values recorded with Kappa-type opioid receptor (Cavia porcellus).
Sequence (P41144 whole entry): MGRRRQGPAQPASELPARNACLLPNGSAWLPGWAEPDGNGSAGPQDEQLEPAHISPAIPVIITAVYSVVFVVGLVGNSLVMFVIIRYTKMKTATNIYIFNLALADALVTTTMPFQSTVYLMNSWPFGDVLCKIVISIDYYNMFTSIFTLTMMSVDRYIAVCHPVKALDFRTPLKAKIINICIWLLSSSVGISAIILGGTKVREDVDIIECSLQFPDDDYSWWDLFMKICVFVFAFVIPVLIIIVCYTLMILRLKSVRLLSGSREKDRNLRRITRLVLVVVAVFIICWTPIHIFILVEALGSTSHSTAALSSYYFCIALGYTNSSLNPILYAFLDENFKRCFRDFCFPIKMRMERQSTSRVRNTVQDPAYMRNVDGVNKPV
assay-metric: Ki (nM)

>>> df
                      smiles_representation                             tested_system  unit_symbol  value_relation_sign  number
0  COc1ccc2c3c1O[C@H]1/C(=N\OCC(=O)NCCNC(=O)CCCCCn4cc(C(=O)c5cccc6ccccc56)c5ccccc54)CC[C@@]4(O)[C@@H](C2)N(C)CC[C@]314  Kappa-type opioid receptor (Cavia porcellus)           nM                    =     337
1   CCCCCn1cc(C(=O)c2cccc3ccccc23)c2ccccc21  Kappa-type opioid receptor (Cavia porcellus)           nM                    >   10000
2  COc1ccc2c3c1O[C@H]1/C(=N\OCC(=O)NCCN)CC[C@@]4(O)[C@@H](C2)N(C)CC[C@]314  Kappa-type opioid receptor (Cavia porcellus)           nM                    =     471
3  C[C@@H](NC(=O)[C@@H](N)Cc1ccc(O)cc1)C(=O)NCC(=O)N[C@@H](Cc1ccccc1)C(=O)NCCCCCn1cc(C(=O)c2cccc3ccccc23)c2ccccc21  Kappa-type opioid receptor (Cavia porcellus)           nM                    =     231

###

Ki by entry:
# tested-system: Cannabinoid receptor (Rattus norvegicus, UniProt Q9QZN9+P20272)
# Assay type: cell membranes, Wistar, Brain, Membranes
assay-metric: Ki (µM)

In [3]: df
Out[3]:
                      smiles_representation                             tested_system  unit_symbol  value_relation_sign  number
0  C[C@@H](NC(=O)[C@@H](N)Cc1ccc(O)cc1)C(=O)NCC(=O)N[C@@H](Cc1ccccc1)C(N)=O  Cannabinoid receptor (Rattus norvegicus, UniProt Q9QZN9+P20272)           µM                    >      10
1  COc1ccc2c3c1O[C@H]1/C(=N\OCC(=O)NCCCCCCNC(=O)CCCCCn4cc(C(=O)c5cccc6ccccc56)c5ccccc54)CC[C@@]4(O)[C@@H](C2)N(C)CC[C@]314  Cannabinoid receptor (Rattus norvegicus, UniProt Q9QZN9+P20272)           µM                    =   0.012
2  C[C@@H](NC(=O)[C@@H](N)Cc1ccc(O)cc1)C(=O)NCC(=O)N[C@@H](Cc1ccccc1)C(=O)NCC(=O)NCCCCCn1cc(C(=O)c2cccc3ccccc23)c2ccccc21  Cannabinoid receptor (Rattus norvegicus, UniProt Q9QZN9+P20272)           µM                    =   0.317
3  O=C(O)CCCCCn1cc(C(=O)c2cccc3ccccc23)c2ccccc21  Cannabinoid receptor (Rattus norvegicus, UniProt Q9QZN9+P20272)           µM                    =   0.205
4   CCCCCn1cc(C(=O)c2cccc3ccccc23)c2ccccc21  Cannabinoid receptor (Rattus norvegicus, UniProt Q9QZN9+P20272)           µM                    =  0.0029
5  C[C@@H](NC(=O)[C@@H](N)Cc1ccc(O)cc1)C(=O)NCC(=O)N[C@@H](Cc1ccccc1)C(=O)NCCC(=O)NCCCCCn1cc(C(=O)c2cccc3ccccc23)c2ccccc21  Cannabinoid receptor (Rattus norvegicus, UniProt Q9QZN9+P20272)           µM                    =   1.216
